Taken from patent US20250122148A1.

assayed-target: human KCNQ4 (Homo sapiens)
Construct: host or cells: CHO-K1 (Chinese hamster ovary), transient transfection with Lipofectamine 2000, co-transfected with GFP
run-description: Whole-cell voltage clamp of KCNQ4 channel current in transfected CHO-K1 cells
Type: cell-based
Set-up: key: IDrug/IControl current amplitude ratio at -10 mV
recorded-conditions: activation efficacy, 100 nM compound, -10 mV test pulse, CHO-K1 cells, mean ± SEM
Reported KCNQ4 (IDrug/IControl 100 nM) by item:
The answer should be a number; do not append a unit.

// below: answered compounds
C#CCN(Cc1cccc(F)c1)c1ccc(NC(=O)OC(C)(C)C)cc1
3.00
C#CCN(Cc1ccc(Cl)cc1)c1ccc(NC(=O)OC(C)(C)C)cc1
3.30
C#CCN(Cc1ccc(Br)c(F)c1)c1ccc(NC(=O)OC(C)(C)C)cc1
2.72
C#CCN(Cc1ccc(C(C)(C)C)cc1)c1ccc(NC(=O)OC(C)(C)C)cc1
4.40
C#CCN(Cc1ccc(F)c(C#N)c1)c1ccc(NC(=O)OC(C)(C)C)cc1
1.26

Input line: Dear colleague, please send me the reported KCNQ4 (IDrug/IControl 100 nM) for `C#CCN(Cc1ccc(F)c(C(F)(F)F)c1)c1ccc(NC(=O)OC(C)(C)C)cc1` when you can.
Output line: 1.69

Input line: Dear colleague, please send me the reported KCNQ4 (IDrug/IControl 100 nM) for `C#CCN(Cc1ccc(F)c(F)c1)c1ccc(NC(=O)OC(C)(C)C)cc1` when you can.
Output line: 1.46

Input line: Dear colleague, please send me the reported KCNQ4 (IDrug/IControl 100 nM) for `C#CCN(Cc1ccc([N+](=O)[O-])cc1)c1ccc(NC(=O)OC(C)(C)C)cc1` when you can.
Output line: 1.66

* * *

assayed-target: human KCNQ4 (Homo sapiens)
Construct: host or cells: CHO-K1 (Chinese hamster ovary), transient transfection with Lipofectamine 2000, co-transfected with GFP
run-description: Whole-cell voltage clamp of KCNQ4 channel current in transfected CHO-K1 cells
Type: cell-based
Design: key: IDrug/IControl current amplitude ratio at -10 mV
recorded-conditions: activation efficacy, 100 nM compound, -10 mV test pulse, CHO-K1 cells, mean ± SEM
parameter: KCNQ4 (IDrug/IControl 100 nM)
The answer should be a number; do not append a unit.

// below: answered compounds
C#CCN(Cc1ccc(F)cc1)c1ccc(NC(=O)OC(C)(C)C)cc1 [Compound K31]
3.06
C#CCN(Cc1ccc(I)cc1)c1ccc(NC(=O)OC(C)(C)C)cc1 [Compound K37]
3.28

Input line: For human KCNQ4 (Homo sapiens), give KCNQ4 (IDrug/IControl 100 nM) of the listed compound: C#CCN(Cc1ccc(Br)cc1)c1ccc(NC(=O)OC(C)(C)C)cc1 [Compound K36]
Output line: 3.50

Input line: For human KCNQ4 (Homo sapiens), give KCNQ4 (IDrug/IControl 100 nM) of the listed compound: C#CCN(Cc1ccc(F)c([N+](=O)[O-])c1)c1ccc(NC(=O)OC(C)(C)C)cc1 [Compound K42]
Output line: 1.35

Input line: For human KCNQ4 (Homo sapiens), give KCNQ4 (IDrug/IControl 100 nM) of the listed compound: C#CCN(Cc1ccccc1F)c1ccc(NC(=O)OC(C)(C)C)cc1 [Compound K32]
Output line: 2.50

* * *

assayed-target: human KCNQ2 (Homo sapiens)
Construct: host or cells: CHO-K1 (Chinese hamster ovary), transient transfection with Lipofectamine 2000, co-transfected with GFP
run-description: Whole-cell voltage clamp of KCNQ2 channel current in transfected CHO-K1 cells
Assay type: cell-based
Set-up: key: IDrug/IControl current amplitude ratio at -10 mV
recorded-conditions: activation efficacy, 100 nM compound, -10 mV test pulse, CHO-K1 cells, mean ± SEM
Decision: KCNQ2 (IDrug/IControl 100 nM) compared against 1; not below it gives satisfied, below it gives not satisfied.

C#CCN(Cc1ccccc1F)c1ccc(NC(=O)OC(C)(C)C)cc1
satisfied
C#CCN(Cc1ccc(F)cc1)c1ccc(NC(=O)OC(C)(C)C)cc1
satisfied

Input line: In plain terms: is recorded KCNQ2 (IDrug/IControl 100 nM) at least 1 for `C#CCN(Cc1ccc(Br)cc1)c1ccc(NC(=O)OC(C)(C)C)cc1` ?
Output line: satisfied

Input line: In plain terms: is recorded KCNQ2 (IDrug/IControl 100 nM) at least 1 for `C#CCN(Cc1ccc([N+](=O)[O-])cc1)c1ccc(NC(=O)OC(C)(C)C)cc1` ?
Output line: not satisfied

Input line: In plain terms: is recorded KCNQ2 (IDrug/IControl 100 nM) at least 1 for `C#CCN(Cc1ccc(F)c(F)c1)c1ccc(NC(=O)OC(C)(C)C)cc1` ?
Output line: satisfied

Input line: In plain terms: is recorded KCNQ2 (IDrug/IControl 100 nM) at least 1 for `C#CCN(Cc1ccc(C(C)(C)C)cc1)c1ccc(NC(=O)OC(C)(C)C)cc1` ?
Output line: satisfied

* * *

assayed-target: human KCNQ2 (Homo sapiens, UniProt O43526)
Construct: host or cells: CHO-K1 (Chinese hamster ovary), transient transfection with Lipofectamine 2000, co-transfected with GFP
run-description: Whole-cell voltage clamp of KCNQ2 channel current in transfected CHO-K1 cells
Type: cell-based
Parameters: key: IDrug/IControl current amplitude ratio at -10 mV
recorded-conditions: activation efficacy, 100 nM compound, -10 mV test pulse, CHO-K1 cells, mean ± SEM
Decision: KCNQ2 (IDrug/IControl 100 nM) compared against 1; not below it gives Yes, below it gives No.

Worked examples follow.
C#CCN(Cc1cccc(F)c1)c1ccc(NC(=O)OC(C)(C)C)cc1
Yes
C#CCN(Cc1ccc(F)c(C(F)(F)F)c1)c1ccc(NC(=O)OC(C)(C)C)cc1
Yes

Input line: In plain terms: is recorded KCNQ2 (IDrug/IControl 100 nM) at least 1 for `C#CCN(Cc1ccc(F)c(C#N)c1)c1ccc(NC(=O)OC(C)(C)C)cc1` ?
Output line: No
